Entries and their IC50 values follow.
# TARGET_OR_TEST_SYSTEM: Human KDR (residues 790-1356) (Homo sapiens (Human))
# Sequence (P35968 790-1356): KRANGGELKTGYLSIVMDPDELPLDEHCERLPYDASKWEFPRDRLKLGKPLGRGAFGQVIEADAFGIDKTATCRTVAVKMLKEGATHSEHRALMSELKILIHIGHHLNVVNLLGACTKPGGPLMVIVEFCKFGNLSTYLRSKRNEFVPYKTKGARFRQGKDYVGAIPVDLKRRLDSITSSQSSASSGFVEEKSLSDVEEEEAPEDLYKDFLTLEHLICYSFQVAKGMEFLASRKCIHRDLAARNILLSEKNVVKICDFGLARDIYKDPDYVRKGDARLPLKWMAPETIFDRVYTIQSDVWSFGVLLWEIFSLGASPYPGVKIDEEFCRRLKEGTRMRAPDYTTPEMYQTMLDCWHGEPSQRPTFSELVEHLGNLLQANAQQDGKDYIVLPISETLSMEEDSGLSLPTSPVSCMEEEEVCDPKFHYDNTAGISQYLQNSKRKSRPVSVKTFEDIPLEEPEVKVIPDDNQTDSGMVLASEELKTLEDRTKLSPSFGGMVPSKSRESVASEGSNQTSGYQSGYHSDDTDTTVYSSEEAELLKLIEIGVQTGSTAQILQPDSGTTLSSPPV
# EXPERIMENT_DESCRIPTION: Human KDR kinase assay, HTRF KinEase (Example B-2)
# Format: biochemical
# CONDITION_NOTES: protocol of Example B-2 (other compounds)

Example entries begin here.
[
  {
    "SMILES_STR": "COc1cc2nccc(Oc3ccc(NC(=O)c4cnc(C)c(-c5ccc(F)cc5)c4O)cc3F)c2cc1OC",
    "IC50": "< 100 nM"
  },
  {
    "SMILES_STR": "CCn1cc(C(=O)Nc2ccc(Oc3ccnc4cc(OC)c(OC)nc34)cc2)c(=O)c(-c2ccc(F)cc2)c1C",
    "IC50": "100 to 300 nM"
  },
  {
    "SMILES_STR": "COc1cnc2c(Oc3ccc(NC(=O)c4n[nH]c(C)c(-c5ccc(F)cc5)c4=O)cc3)ccnc2c1",
    "IC50": "100 to 300 nM"
  },
  {
    "SMILES_STR": "COc1ccc2c(Oc3ccc(NC(=O)c4cnc(C)c(-c5ccc(F)cc5)c4O)cc3F)ccnc2c1",
    "IC50": "100 to 300 nM"
  },
  {
    "SMILES_STR": "COCc1nc(C)c(-c2ccc(F)cc2C)c(O)c1C(=O)Nc1ccc(Oc2ccnc3ccc(OC)nc23)c(F)c1",
    "IC50": "> 300 nM"
  },
  {
    "SMILES_STR": "CCc1nc(C)c(-c2ccc(F)cc2C)c(O)c1C(=O)Nc1ccc(Oc2ccnc3cc(OC)cnc23)cc1",
    "IC50": "> 300 nM"
  },
  {
    "SMILES_STR": "COc1cc2nccc(Oc3ccc(NC(=O)c4cnc(C)n(-c5ccc(F)cc5)c4=O)cc3)c2nc1OC",
    "IC50": "> 300 nM"
  },
  {
    "SMILES_STR": "CCc1nc(C)c(-c2ccc(F)cc2C)c(O)c1C(=O)Nc1ccc(Oc2ccnc3ccc(OC)nc23)c(F)c1",
    "IC50": "> 300 nM"
  },
  {
    "SMILES_STR": "COc1cnc2c(Oc3ccc(NC(=O)c4c(C)ccn(-c5ccc(F)cc5)c4=O)cc3F)ccnc2c1",
    "IC50": "< 100 nM"
  },
  {
    "SMILES_STR": "CCOc1c(-c2ccc(F)cc2)cnc(C)c1C(=O)Nc1ccc(Oc2ccnc3cc(OC)c(OC)nc23)c(F)c1",
    "IC50": "> 300 nM"
  }
]

Find the measured IC50: item `COc1cc2nccc(Oc3ccc(NC(=O)c4cn(C)c(C)c(-c5ccc(F)cc5)c4=O)cc3Cl)c2nc1OC` , target or system Human KDR (residues 790-1356) (Homo sapiens (Human)). < 100 nM

Find the measured IC50: item `COc1cc2nccc(Oc3ccc(NC(=O)c4cc(Br)c(C)n(-c5ccc(F)cc5)c4=O)cc3F)c2nc1OC` , target or system Human KDR (residues 790-1356) (Homo sapiens (Human)). 100 to 300 nM

Find the measured IC50: item `COc1cnc2c(Oc3ccc(NC(=O)c4cn(C)c(C)c(-c5ccc(F)cc5C)c4=O)cc3)ccnc2c1` , target or system Human KDR (residues 790-1356) (Homo sapiens (Human)). > 300 nM

Find the measured IC50: item `COCCOc1nc2c(Oc3ccc(NC(=O)c4ccc(C)n(-c5ccc(F)cc5)c4=O)cc3F)ccnc2cc1OC` , target or system Human KDR (residues 790-1356) (Homo sapiens (Human)). < 100 nM

Find the measured IC50: item `COc1cc2nccc(Oc3ccc(NC(=O)c4cnc(N(C)C)n(-c5ccc(F)cc5)c4=O)cc3F)c2nc1OC` , target or system Human KDR (residues 790-1356) (Homo sapiens (Human)). < 100 nM

Find the measured IC50: item `COCCOc1nc2c(Oc3ccc(NC(=O)c4cnc(C)c(-c5ccc(F)cc5C)c4O)cc3F)ccnc2cc1OC` , target or system Human KDR (residues 790-1356) (Homo sapiens (Human)). < 100 nM

Find the measured IC50: item `COc1cc2nccc(Oc3ccc(NC(=O)c4cnc(C)c(-c5ccc(F)cc5C)c4O)cc3F)c2nc1OCCCN1CCOCC1` , target or system Human KDR (residues 790-1356) (Homo sapiens (Human)). < 100 nM

Find the measured IC50: item `COc1cc2nccc(Oc3ccc(NC(=O)c4cnc(C)c(-c5ccc(F)cc5)c4O)cc3)c2nc1OC(C)C` , target or system Human KDR (residues 790-1356) (Homo sapiens (Human)). < 100 nM

Find the measured IC50: item `COc1cnc2c(Oc3ccc(NC(=O)c4c(C)ccn(-c5ccc(F)cc5)c4=O)cc3)ccnc2c1` , target or system Human KDR (residues 790-1356) (Homo sapiens (Human)). 100 to 300 nM
